assay.text: NCI Yeast Anticancer Drug Screen. Data for the wt1 strain (AID 149);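 also: 0% = growth of vehicle-treated wt1 cultures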
stated.conditions: S. cerevisiae wt1 strain (SPY 50644) growth inhibition; at 3.7 µM; stronger effect = higher value
This is part of a sample that, as a whole, favours compounds with a hit. Of some 79,000 tested, about 15% had one in any assay.
assay.metric: growth inhibition (%)
All answers are understood in %, so give the number only.

Answered cases to consult:
> print(dat)
                                   compound  meas.value
1  O=P(C(=S)Nc1c(Cl)cccc1Cl)(c1ccccc1)c1ccccc1          25
2      CC1=CC(=O)C=CC1=Nc1cc(Cl)c(O)c(Cl)c1         -24

The compound listed as O=C1C(CCSc2ccccc2)C(=O)N(c2ccccc2)C1c1ccccc1 (stereo not drawn) shows growth inhibition equal to -14

The value of growth inhibition measured for the compound CCC(C)COC(=O)Nc1cccc(Cl)c1 (stereo not drawn) turned out to be -1

The recorded growth inhibition for entry O=C(NCCCCN(CCCNC(=O)C(F)(F)F)Cc1ccccc1)C(F)(F)F equals 9

The reported value for CC(/C=C/c1ccc([N+](=O)[O-])o1)=N/N1CC(CN2CCOCC2)OC1=O (stereo not drawn) in terms of growth inhibition is 11

growth inhibition measured on O=C(CCCN1CCC(Nc2ccc(F)cc2)(c2nnnn2C2CCCCC2)CC1)c1ccc(F)cc1 = -5

Record summary for NC(CS)C(=O)NCCNc1ccc(NCCNC(=O)C(N)CS)c2c1C(=O)c1c(O)ccc(O)c1C2=O (stereo not drawn) : reported growth inhibition = -25

growth inhibition reported for this compound CC(=O)CC(c1ccccc1)c1c(O)c2ccccc2oc1=O (stereo not drawn) : -10

// growth inhibition lookup, compound = CCc1c(Cl)c(C)c(Cl)c(O)c1Cl , result: -25

Record O=C(NC(N1CCN(c2cc3c(cc2F)c(=O)c(C(=O)O)cn3C2CC2)CC1)(C(F)(F)F)C(F)(F)F)c1ccccc1 , field growth inhibition: -3

Quick note, growth inhibition for CC12CCC(CC(=O)/C1=C(/Br)I)C2(C)C (stereo not drawn) landed at -2

Summary for this compound, Nc1cc2c(cc1N)-c1ccccc1C2=O : growth inhibition is -3

###

Reported growth inhibition values are given for each entry in this list.
assay.text: NCI Yeast Anticancer Drug Screen. Data for the rad50EPP+ strain (AID 151);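 also: 0% = growth of vehicle-treated control cultures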
stated.conditions: S. cerevisiae rad50 mutant strain, at 33.0 µM, stronger effect = higher value
Compounds without any hit were thinned out: in the full panel of roughly 79,000, 15% have a hit.
Please give a number only; it is taken to be in %.

Sample answers from the record:
> print(dat)
                                   compound  value.units  meas.value
1  CCCNCC(=O)O[C@]1(CC)C(=O)OCc2c1cc1n(c2=O)Cc2cc3ccccc3nc2-1            %          89
2           Oc1ccc(C2(c3ccc(O)cc3)CCCC2)cc1            %         -50

The reported growth inhibition of the compound O=C(/C=C/c1ccsc1)c1cccs1 was 54

For this compound ( BrC1C2CCC3OC3C12 (stereo not drawn) ), measured growth inhibition is 89

Record CC(C)(Br)C(=O)/C=C/c1ccccc1 , field growth inhibition: 88

Lookup result for CCCCCCCCSC1=C(Cl)C(=O)C(OC)=C(OC)C1=O ; measured growth inhibition: 18
